- tested system: VLA4 (Homo sapiens, UniProt P05556+P13612)
- Construct: endogenous in cells
- Sequence (P13612 34-1032): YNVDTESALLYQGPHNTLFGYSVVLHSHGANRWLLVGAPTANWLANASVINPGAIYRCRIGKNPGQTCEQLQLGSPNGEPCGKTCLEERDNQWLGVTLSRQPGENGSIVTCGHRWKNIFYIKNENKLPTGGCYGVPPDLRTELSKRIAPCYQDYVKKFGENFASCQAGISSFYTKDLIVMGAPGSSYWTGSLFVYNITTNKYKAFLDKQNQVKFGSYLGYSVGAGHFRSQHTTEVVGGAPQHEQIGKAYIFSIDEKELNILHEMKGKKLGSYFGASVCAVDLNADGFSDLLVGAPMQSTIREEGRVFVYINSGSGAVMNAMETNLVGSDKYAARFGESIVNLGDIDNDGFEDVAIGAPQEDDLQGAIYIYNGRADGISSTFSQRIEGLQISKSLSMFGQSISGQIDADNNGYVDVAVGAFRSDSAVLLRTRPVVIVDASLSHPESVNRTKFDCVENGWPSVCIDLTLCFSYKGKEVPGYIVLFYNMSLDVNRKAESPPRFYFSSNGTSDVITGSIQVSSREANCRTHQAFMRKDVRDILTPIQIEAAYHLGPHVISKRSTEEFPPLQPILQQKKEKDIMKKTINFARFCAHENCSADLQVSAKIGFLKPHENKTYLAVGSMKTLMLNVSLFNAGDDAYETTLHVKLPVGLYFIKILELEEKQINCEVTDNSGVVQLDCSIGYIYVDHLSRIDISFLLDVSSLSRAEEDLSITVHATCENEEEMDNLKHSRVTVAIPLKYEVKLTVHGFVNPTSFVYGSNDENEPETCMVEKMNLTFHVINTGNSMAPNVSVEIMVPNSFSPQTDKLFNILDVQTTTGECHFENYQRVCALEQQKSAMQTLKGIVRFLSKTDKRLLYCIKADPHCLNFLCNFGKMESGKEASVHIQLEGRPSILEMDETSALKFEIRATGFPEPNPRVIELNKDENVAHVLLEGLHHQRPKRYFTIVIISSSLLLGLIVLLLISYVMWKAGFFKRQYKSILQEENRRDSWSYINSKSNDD
- Sequence (P05556 21-798): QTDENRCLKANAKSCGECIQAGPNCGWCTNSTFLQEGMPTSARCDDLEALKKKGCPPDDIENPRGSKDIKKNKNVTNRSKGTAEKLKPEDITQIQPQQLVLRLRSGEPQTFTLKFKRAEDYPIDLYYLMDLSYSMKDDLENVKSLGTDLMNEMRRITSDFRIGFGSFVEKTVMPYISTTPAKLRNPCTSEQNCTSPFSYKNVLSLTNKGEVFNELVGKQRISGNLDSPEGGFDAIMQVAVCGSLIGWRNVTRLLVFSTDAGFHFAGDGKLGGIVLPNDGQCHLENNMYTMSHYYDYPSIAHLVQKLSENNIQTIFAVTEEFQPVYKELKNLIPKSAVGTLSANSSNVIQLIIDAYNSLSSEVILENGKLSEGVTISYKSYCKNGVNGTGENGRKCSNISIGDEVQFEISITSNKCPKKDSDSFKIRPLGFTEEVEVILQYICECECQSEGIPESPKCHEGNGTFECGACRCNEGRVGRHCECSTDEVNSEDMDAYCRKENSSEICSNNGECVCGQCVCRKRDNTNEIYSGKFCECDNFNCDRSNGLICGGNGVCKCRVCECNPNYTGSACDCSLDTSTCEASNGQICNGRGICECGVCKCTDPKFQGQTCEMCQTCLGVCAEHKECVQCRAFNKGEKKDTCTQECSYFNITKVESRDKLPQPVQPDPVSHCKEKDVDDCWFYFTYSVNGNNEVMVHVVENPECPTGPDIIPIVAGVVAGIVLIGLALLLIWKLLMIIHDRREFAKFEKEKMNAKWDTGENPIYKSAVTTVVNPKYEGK
- procedure details: Inhibition of VLA4-dependent adhesion to BSA-CS1 (labelled Ramos cells)
- protocol conditions: binding of BCECF-AM labelled Ramos cells to CS1 peptide-coated wells, 2 mM MnCl2, 30 minutes at room temperature; IC50 range
The entries below are paired with their reported IC50.
readout: IC50

[[record]]
compound = "COc1ccc(CC(NC(=O)Cc2ccccc2)C(=O)NC(CC(=O)O)c2ccccc2)cc1 (stereo not shown) [compound 1122]"
tested_system = "VLA4 (Homo sapiens, UniProt P05556+P13612)"
reported_result = "> 10 µM"

[[record]]
compound = "CC(C)CC(NC(=O)Cc1ccc(O)cc1)C(=O)NC(CC(=O)O)c1cccnc1 (stereo not shown) [compound 1148]"
tested_system = "VLA4 (Homo sapiens, UniProt P05556+P13612)"
reported_result = "> 10 µM"

[[record]]
compound = "O=C(O)CC(NC(=O)C(CCC(=O)N1CCOCC1)NC(=O)Cc1ccc(NC(=O)Nc2ccccc2)cc1)c1ccc2c(c1)OCO2 (stereo not shown) [compound 1216]"
tested_system = "VLA4 (Homo sapiens, UniProt P05556+P13612)"
reported_result = "0.05 to 10 µM"

[[record]]
compound = "CC(C)CC(NC(=O)OCc1ccccc1)C(=O)NC(CC(=O)O)c1ccccc1 (stereo not shown) [compound 1085]"
tested_system = "VLA4 (Homo sapiens, UniProt P05556+P13612)"
reported_result = "> 10 µM"

